B1: library; a variant is named by its letters at N, in order (parent)
chain: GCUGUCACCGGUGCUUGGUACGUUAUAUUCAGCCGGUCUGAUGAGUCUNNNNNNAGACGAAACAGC

Variants of: B1
measurement-description: normalized RNA/DNA level without ligand (relative to sTRSVctl = 100) (log10 (% of sTRSVctl)); HEK293T overexpressing SLC46A1; higher = less ribozyme self-cleavage, higher mRNA level
test-conditions: without (6R,S)-folinic acid; ligand present: no
Listed here: items and their measured normalized RNA/DNA level without ligand (log10).
readout: normalized RNA/DNA level without ligand (log10)

[[record]]
residue_string = "GCUGUCACCGGUGCUUGGUACGUUAUAUUCAGCCGGUCUGAUGAGUCUCGCGCAAGACGAAACAGC [CGCGCA]"
data_value = 2.04

[[record]]
residue_string = "GCUGUCACCGGUGCUUGGUACGUUAUAUUCAGCCGGUCUGAUGAGUCUAGAGGCAGACGAAACAGC [AGAGGC]"
data_value = 2.02

[[record]]
residue_string = "GCUGUCACCGGUGCUUGGUACGUUAUAUUCAGCCGGUCUGAUGAGUCUUCCAGAAGACGAAACAGC [UCCAGA]"
data_value = 2.01

[[record]]
residue_string = "GCUGUCACCGGUGCUUGGUACGUUAUAUUCAGCCGGUCUGAUGAGUCUGUUUGAAGACGAAACAGC [GUUUGA]"
data_value = 2.01

[[record]]
residue_string = "GCUGUCACCGGUGCUUGGUACGUUAUAUUCAGCCGGUCUGAUGAGUCUGACGAUAGACGAAACAGC [GACGAU]"
data_value = 1.95

[[record]]
residue_string = "GCUGUCACCGGUGCUUGGUACGUUAUAUUCAGCCGGUCUGAUGAGUCUGCCGGAAGACGAAACAGC [GCCGGA]"
data_value = 2.07

[[record]]
residue_string = "GCUGUCACCGGUGCUUGGUACGUUAUAUUCAGCCGGUCUGAUGAGUCUUGCAUCAGACGAAACAGC [UGCAUC]"
data_value = 2.07

[[record]]
residue_string = "GCUGUCACCGGUGCUUGGUACGUUAUAUUCAGCCGGUCUGAUGAGUCUCAGUAAAGACGAAACAGC [CAGUAA]"
data_value = 1.96

[[record]]
residue_string = "GCUGUCACCGGUGCUUGGUACGUUAUAUUCAGCCGGUCUGAUGAGUCUUCCCUUAGACGAAACAGC [UCCCUU]"
data_value = 2.03

[[record]]
residue_string = "GCUGUCACCGGUGCUUGGUACGUUAUAUUCAGCCGGUCUGAUGAGUCUCUGCGUAGACGAAACAGC [CUGCGU]"
data_value = 2.06

[[record]]
residue_string = "GCUGUCACCGGUGCUUGGUACGUUAUAUUCAGCCGGUCUGAUGAGUCUGUAGCGAGACGAAACAGC [GUAGCG]"
data_value = 1.93

[[record]]
residue_string = "GCUGUCACCGGUGCUUGGUACGUUAUAUUCAGCCGGUCUGAUGAGUCUACACGGAGACGAAACAGC [ACACGG]"
data_value = 1.93

[[record]]
residue_string = "GCUGUCACCGGUGCUUGGUACGUUAUAUUCAGCCGGUCUGAUGAGUCUAGCUAUAGACGAAACAGC [AGCUAU]"
data_value = 1.99

[[record]]
residue_string = "GCUGUCACCGGUGCUUGGUACGUUAUAUUCAGCCGGUCUGAUGAGUCUGGGUGAAGACGAAACAGC [GGGUGA]"
data_value = 2.07

[[record]]
residue_string = "GCUGUCACCGGUGCUUGGUACGUUAUAUUCAGCCGGUCUGAUGAGUCUAUCCGGAGACGAAACAGC [AUCCGG]"
data_value = 2.04

[[record]]
residue_string = "GCUGUCACCGGUGCUUGGUACGUUAUAUUCAGCCGGUCUGAUGAGUCUAUAUUGAGACGAAACAGC [AUAUUG]"
data_value = 1.9

[[record]]
residue_string = "GCUGUCACCGGUGCUUGGUACGUUAUAUUCAGCCGGUCUGAUGAGUCUUAUACCAGACGAAACAGC [UAUACC]"
data_value = 2.01

[[record]]
residue_string = "GCUGUCACCGGUGCUUGGUACGUUAUAUUCAGCCGGUCUGAUGAGUCUGAUUCAAGACGAAACAGC [GAUUCA]"
data_value = 1.99

[[record]]
residue_string = "GCUGUCACCGGUGCUUGGUACGUUAUAUUCAGCCGGUCUGAUGAGUCUAUACCUAGACGAAACAGC [AUACCU]"
data_value = 2.02

[[record]]
residue_string = "GCUGUCACCGGUGCUUGGUACGUUAUAUUCAGCCGGUCUGAUGAGUCUCGCCAGAGACGAAACAGC [CGCCAG]"
data_value = 2

[[record]]
residue_string = "GCUGUCACCGGUGCUUGGUACGUUAUAUUCAGCCGGUCUGAUGAGUCUUACUGCAGACGAAACAGC [UACUGC]"
data_value = 2.01

[[record]]
residue_string = "GCUGUCACCGGUGCUUGGUACGUUAUAUUCAGCCGGUCUGAUGAGUCUCUGCAGAGACGAAACAGC [CUGCAG]"
data_value = 1.91

